test method notes: Example 18 Part 2: multiple dose PK (20 mg QID) of 3,4-DAP and 3-N-acetyl metabolite in slow and fast acetylators
Format: in vivo, human
condition set: both sexes, human, plasma, oral, 20 mg, Day 1, fast acetylators, Dose 4 interval, 20 mg QID, arith. mean; read-out: Cmax
readout type: Cmax
Please don't drop the unit; write it after the number.

Prompt: Can you share its Cmax? I mean this compound: CC(=O)Nc1cnccc1N [3-N-acetyl amifampridine, N-(4-aminopyridin-3-yl)acetamide]
Response: 433 ng/mL

###

test method notes: Example 18 Part 2: multiple dose PK (20 mg QID) of 3,4-DAP and 3-N-acetyl metabolite in slow and fast acetylators
Type: in vivo, human
condition set: both sexes, human, plasma, oral, 20 mg, Day 3, fast acetylators, Dose 3 interval, 20 mg QID, arith. mean; read-out: t1/2 (converted)
readout type: half-life (h)
Give bare numbers, in h.

Prompt: Fill blank: measured half-life of the compound CC(=O)Nc1cnccc1N [3-N-acetyl amifampridine, N-(4-aminopyridin-3-yl)acetamide] is ____.
Response: 3.74

###

test method notes: Example 18 Part 2: multiple dose PK (20 mg QID) of 3,4-DAP and 3-N-acetyl metabolite in slow and fast acetylators
Assay type: in vivo, human
condition set: both sexes, human, plasma, oral, 20 mg, Day 4, 20 mg single dose, slow acetylators; read-out: Mean t1/2 (converted)
readout type: half-life (h)
Answers are plain numbers, in h.

Prompt: Could you tell me which half-life is on file for Nc1ccncc1N ?
Response: 3.24

###

test method notes: Example 18 Part 2: multiple dose PK (20 mg QID) of 3,4-DAP and 3-N-acetyl metabolite in slow and fast acetylators
Assay type: in vivo, human
condition set: both sexes, human, plasma, oral, 20 mg, Day 1, Dose 1, fast acetylators, 20 mg QID; read-out: Mean t1/2 (converted)
readout type: half-life (h)
Answers are plain numbers, in h.

Prompt: Look up half-life for this compound: Nc1ccncc1N [3,4-DAP, 3,4-diaminopyridine]
Response: 1.12

###

test method notes: Example 18 Part 2: multiple dose PK (20 mg QID) of 3,4-DAP and 3-N-acetyl metabolite in slow and fast acetylators
Type: in vivo, human
condition set: both sexes, human, plasma, oral, 20 mg, Day 1, Dose 2, slow acetylators, 20 mg QID; read-out: Mean Cmax
Protocol: The following method was used to analyze concentrations of 3,4-diaminopyridine and N-(4-aminopyridin-3-yl)acetamide in plasma and urine samples for the experiments in Example 18. […] Samples were analyzed by using HPLC with positive ion electrospray MS/MS detection. […] The LC/MS/MS method was validated to quantify 3,4-DAP in human plasma in the linear calibration range of 0.500 to 500 ng/mL and from 1.00 to 1000 ng/mL for the 3-N-acetyl metabolite. […]
readout type: Cmax (ng/mL)
Numbers only, in ng/mL.

Prompt: Requested field: Cmax. Item: Nc1ccncc1N
Response: 83.7

###

test method notes: Example 18 Part 2: multiple dose PK (20 mg QID) of 3,4-DAP and 3-N-acetyl metabolite in slow and fast acetylators
Format: in vivo, human
condition set: both sexes, human, plasma, oral, 20 mg, Day 1, Dose 2, fast acetylators, 20 mg QID; read-out: Mean Vz/F
readout type: Vd/F

Prompt: Query (compound): Nc1ccncc1N ; field requested: Vd/F
Response: 1340 L

###

test method notes: Example 18 Part 2: multiple dose PK (20 mg QID) of 3,4-DAP and 3-N-acetyl metabolite in slow and fast acetylators
Assay type: in vivo, human
condition set: both sexes, human, plasma, oral, 20 mg, Day 3, Dose 4, slow acetylators, 20 mg QID; read-out: Mean AUC0-4
readout type: AUC(0-t) (ng·h/mL)
Answers are plain numbers, in ng·h/mL.

Prompt: Consider the compound shown here: Nc1ccncc1N What is its recorded AUC(0-t)?
Response: 168
